These entries and their values trace back to ChEMBL document CHEMBL1201862.

# Test system: BT-549
# assay_protocol: NCI tumour cell line growth inhibition, 48 h
Calls of active or inactive are those of the source. Cut-off read from the data, not from the text of the source: active = GI50 up to about 1.1 µM and inactive = higher. Where a SMILES comes first, the peptide text is derived from it. Non-standard residues stand in square brackets, D forms with d. Residues, ends and D or L forms follow the SMILES beside them. The star is where a group is joined. *: point of attachment. Bn2Val = CC(C)[C@@H](C(=O)*)N(Cc1ccccc1)Cc1ccccc1; NMeV = CN[C@H](C(=O)O)C(C)C; X32 = COc1ccc(CN*)c(OC)c1; dNMeA = CN[C@H](C)C(=O)O; Cbz = O=C(OCc1ccccc1)*
parameter_measured: GI50

// worked examples, GI50 included
compound: COc1ccc(CNC(=O)[C@@H]2CCCN2C(=O)[C@@H](C)N(C)C(=O)[C@H](C(C)C)N(C)C(=O)[C@@H](NC(=O)[C@H](C(C)C)N(Cc2ccccc2)Cc2ccccc2)C(C)C)c(OC)c1 (Bn2Val-V[NMeV][dNMeA]P-X32)
parameter_measured: GI50
recorded_value: 2.56 µM (inactive)

compound: CCOC(=O)CCC(NC(=O)C(Cc1ccccc1)NC(=O)OCc1ccccc1)C(=O)OCC (stereo not drawn) (Cbz-Phe-Glu(OEt)-OEt; configuration not given here)
parameter_measured: GI50
recorded_value: > 100 µM (inactive)

Now take the following compound into account.
Data request, read-out GI50, for COc1ccc(N[S+]([O-])CCCc2ccccc2)cc1 (stereo not drawn)
4.16 µM (inactive)
